- Tested on: Wnt5a (protein binding on small-molecule microarray)
- assay_text: small molecules binding Wnt5a protein – biophysical, small-molecule microarray, 635/667 nm fluorescence, primary screen (AID 1142);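 further: fluorescence read at 667 nm with signal to noise per printed feature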
- assay_setup: 635 nm fluorescence, higher = more signal
readout: composite z-score

• Cc1cccc(/C=C/C=O)c1 = -0.0267
• Cn1c2c(c3ccccc31)C(=O)C1NC2C=CC1(C)C(=O)OCc1ccccc1 (stereo unspecified) = -0.348
• COc1ccc([Si](C)(C)[C@H]2[C@H](CC(=O)N(CCO)Cc3ccccc3)O[C@@]3(C(=O)N(Cc4cccc(N5C(=O)c6cccc7cccc5c67)c4)c4ccccc43)[C@@H]2C)cc1 = 0.353
• CCOC(=O)C[C@H]1[C@H](OC(=O)c2cc3ccccc3oc2=O)[C@@H](NC(=O)c2ccc3ccccc3c2)c2cc(OCCCO)ccc2N1C(=O)c1ccccc1 = 0.406
• C=C(C(=O)CC[C@@H](OC(C)=O)c1ccc(OCCO)cc1)C(C)C = 0.177
• C[C@]1(C(=O)NCC(F)(F)F)c2ccccc2C(=O)N(Cc2cc(F)cc(C(F)(F)F)c2)[C@H]1c1ccc(CO)cc1 = 0.0343
• CN(C)CCCC[C@@H]1NC(=O)[C@@H]2C[C@H](C(=O)NCCCCCCN)[C@H](c3ccc(O)cc3)N2C1=O = 0.346
• CN1C(=O)C2C=CC(C(O)C(C)(C)C)N(Nc3ccccc3)C2C1=O (stereo unspecified) = 0.04
• C[N+](C)(C)CCCCNC(=O)[C@H]1C[C@H]2C(=O)N3CCC[C@H]3C(=O)N2[C@H]1c1ccc(O)cc1 = 0.554
• O=C1C2C=CC(C(O)c3ccc(Br)cc3)N(n3cnnc3)C2C(=O)N1Cc1ccccc1 (stereo unspecified) = 0.175
• CC(C)OC(=O)C1=CCC(c2cccc(Cl)c2)O1 (stereo unspecified) = -0.593

====

- measured_on: Fibroblast growth factor 10 (Homo sapiens)
- assay_text: compounds binding fibroblast growth factor 10 – biochemical, small-molecule microarray, 635 nm fluorescence, primary screen (AID 1102)
- assay_setup: FGF10 binding, fluorescence 635 nm, higher = more signal
Listed next: entries and their corresponding composite z-score.
readout: composite z-score

- Cc1ccc(S[C@]2(C(=O)NCC(C)C)CC(=O)N(Cc3ccccc3)[C@@H]2c2ccc(CO)cc2)cc1: -0.514
- Cc1ccc(F)cc1S(=O)(=O)N[C@@H]1CCN(Cc2ccc(C(F)(F)F)cc2)C1: -0.425
- C#C[C@H](O[Si](C#CCCCCCC)(C(C)C)C(C)C)c1ccccc1: -0.0831
- [N-]=[N+]=Nc1ccccc1[C@H]1OC(c2ccc(OCCCO)cc2)=N[C@@]1(CCS(=O)(=O)c1ccccc1)C(=O)N1CCOCC1: 1.26
- CC(C)NC(=O)[C@@]1(c2ccc([N+](=O)[O-])cc2)CC(=O)N(C(C)C)[C@@H]1c1ccc(CO)cc1: -0.907
- COc1ccc([Si](C)(C)[C@H]2[C@H](CC(=O)N3CCC[C@H]3CO)O[C@@]3(C(=O)N(Cc4cccc(N5CCC5=O)c4)c4ccccc43)[C@@H]2C)cc1: 1.4
- O=C1C2C=CC(C(O)c3ccc(B(O)O)cc3)N(Nc3ccc([N+](=O)[O-])cc3)C2C(=O)N1c1ccccc1 (stereo not drawn): 1.11
- C[N+](C)(C)CCCCNC(=O)[C@H]1C[C@H]2C(=O)N3CCC[C@H]3C(=O)N2[C@H]1c1ccc(O)cc1: 1.39
- C=CCN1C(=O)[C@]2(COC(c3ccc(OCCCO)cc3)=N2)Cc2ccccc21: 0.261
- CCCNC(=O)[C@@]1(C)c2ccccc2C(=O)N(Cc2ccc(OC(F)(F)F)cc2)[C@H]1c1ccc(CO)cc1: 0.0672
- CCN(CC)c1ccc(N2CC=CC34O[C@@H]5/C=C\CCCOC(=O)C5[C@H]3C(=O)N(CCCO)[C@@H]4C2=O)cc1 (stereo partly drawn): -1.04
- C=CCC(OC(C)=O)[C@@H]1[C@@H](N(Cc2ccc(-c3ccccc3)cc2)C(=O)c2ccc(C)cc2)c2cc(OCCCO)ccc2N1C(=O)Cc1ccc(OC)cc1 (stereo partly drawn): 0.191
- Cc1ccc(N2C(=O)c3ccccc3[C@](C)(C(=O)NCCN3CCOCC3)[C@@H]2c2ccc(CO)cc2)nc1: -1.01
- C=CCOC(=O)[C@H]1[C@@H]2C(=O)O[C@@H](c3ccccc3)[C@@H](c3ccccc3)N2[C@@H](c2ccc(OCCOC(=O)[C@H]3C[C@H]4C(=O)N[C@@H](CCCC[N+](C)(C)C)C(=O)N4[C@H]3c3ccc(O)cc3)cc2)[C@]12C(=O)Nc1ccccc12: 0.507
- NC(=O)NCC#Cc1ccc2c(c1)[C@]1(C(=O)N2)[C@H](C(=O)NC[C@H](O)c2ccccc2)[C@H]2C(=O)O[C@H](c3ccccc3)[C@H](c3ccccc3)N2[C@@H]1c1ccccc1OCCO: 0.588
- O=c1cccc(-c2ccccc2)o1: 0.421
- C/C=C/[C@H](CCn1cc([C@H](O)c2ccccc2)nn1)[Si](C)(C)c1ccc(OC)cc1: -0.607
- [N-]=[N+]=NCc1ccccc1C[C@]1(C(=O)NCc2ccccc2)COC(c2ccc(OCCCO)cc2)=N1: 0.447
